target.system: Biotinylated SARS-CoV-2 S1 protein (ACRO, S1N-C82E8) (UniProt P0DTC2 16-685)
assay.name: BLI
pKd: −log10 of the molar value.
Response key: t means pKd >= 10; f means pKd < 10.

Use these answered entries as a reference point.
binder	group.label
Ab 25 scFv-Fc (scFv, V domains shown) VH: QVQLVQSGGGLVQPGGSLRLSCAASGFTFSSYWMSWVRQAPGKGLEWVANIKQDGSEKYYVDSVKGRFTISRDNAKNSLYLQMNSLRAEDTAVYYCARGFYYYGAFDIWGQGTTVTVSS VL: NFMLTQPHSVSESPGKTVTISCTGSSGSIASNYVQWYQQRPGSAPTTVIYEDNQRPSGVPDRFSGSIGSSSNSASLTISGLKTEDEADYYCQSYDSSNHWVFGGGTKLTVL	f
Ab 21 (scFv, V domains shown) VH: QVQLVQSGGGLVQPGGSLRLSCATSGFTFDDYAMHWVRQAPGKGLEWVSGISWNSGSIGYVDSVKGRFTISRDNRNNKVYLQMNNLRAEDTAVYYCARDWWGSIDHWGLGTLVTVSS VL: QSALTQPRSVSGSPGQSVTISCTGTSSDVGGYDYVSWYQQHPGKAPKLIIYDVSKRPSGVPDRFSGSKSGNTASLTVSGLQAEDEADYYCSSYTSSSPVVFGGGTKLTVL	f
Ab 28 scFv-Fc (scFv, V domains shown) VH: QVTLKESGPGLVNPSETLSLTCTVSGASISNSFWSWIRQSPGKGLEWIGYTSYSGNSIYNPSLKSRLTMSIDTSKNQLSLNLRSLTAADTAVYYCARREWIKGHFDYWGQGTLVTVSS VL: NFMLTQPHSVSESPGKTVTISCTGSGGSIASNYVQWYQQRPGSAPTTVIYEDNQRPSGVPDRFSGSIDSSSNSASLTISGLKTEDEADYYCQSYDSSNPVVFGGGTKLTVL	t

*Q* Please check the record Ab_17 (scFv, V domains shown) VH: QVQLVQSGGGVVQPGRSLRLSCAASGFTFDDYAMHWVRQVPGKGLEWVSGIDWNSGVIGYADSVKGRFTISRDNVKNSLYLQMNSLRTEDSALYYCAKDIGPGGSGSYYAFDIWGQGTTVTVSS VL: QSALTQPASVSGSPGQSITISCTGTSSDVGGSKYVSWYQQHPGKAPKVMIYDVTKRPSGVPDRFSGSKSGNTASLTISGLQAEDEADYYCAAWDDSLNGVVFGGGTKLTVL and state if its pKd is at or above 10.
*A* f

*Q* Please check the record Ab_13 (scFv, V domains shown) VH: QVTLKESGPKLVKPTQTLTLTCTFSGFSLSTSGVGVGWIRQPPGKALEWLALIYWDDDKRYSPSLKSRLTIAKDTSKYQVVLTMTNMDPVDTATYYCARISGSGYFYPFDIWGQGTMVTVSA VL: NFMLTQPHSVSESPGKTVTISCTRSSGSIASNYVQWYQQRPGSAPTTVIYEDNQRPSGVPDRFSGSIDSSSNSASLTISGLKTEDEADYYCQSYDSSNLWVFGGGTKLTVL and state if its pKd is at or above 10.
*A* f

*Q* Please check the record Ab 15 scFv-Fc (scFv, V domains shown) VH: QVQLVQSGGGLVKPGRSLRLSCTASGFTFGDYAMSWFRQAPGKGLEWVGFIRSKAYGGTTGYAASVKGRFTISRDDSKSIAYLQMNSLKTEDTAVYYCTTADDDMDVWGKGTTVTVSS VL: NFMLTQPHSVSESPGKTVTISCTRSSGTIASNYVQWYQQRPGSAPTTVIYEDNQRPSGVPDRFSGSIDRSSNSASLTISGLTPDDEADYYCQSYDTSNHYVFGTGTKVTVL and state if its pKd is at or above 10.
*A* t

*Q* Please check the record Ab 27 scFv-Fc (scFv, V domains shown) VH: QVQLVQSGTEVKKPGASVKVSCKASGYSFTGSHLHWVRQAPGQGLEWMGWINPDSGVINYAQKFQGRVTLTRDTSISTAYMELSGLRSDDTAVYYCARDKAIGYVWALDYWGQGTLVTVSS VL: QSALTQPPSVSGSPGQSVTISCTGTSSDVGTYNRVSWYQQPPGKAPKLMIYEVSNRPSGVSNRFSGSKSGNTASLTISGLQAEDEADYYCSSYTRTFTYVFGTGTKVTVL and state if its pKd is at or above 10.
*A* t
